src = patent US20140147868A1

Molecular target: unrelated control antibody
Test: phage ELISA, coated control mAb, 10^9 phagemid per well
Positions of bridges follow the written chain, without caps; N, C: chain ends. No end group written: not given here.
# binarize ELISA (absorbance units) (absorbance units): threshold 0.2 inclusive, high side 1.0, low side 0.0

Hello, I need to know if CSFFYSLCYCWCS (disulfide (positions not given here); also: four Cys, disulfide pairing not given here) [phagemid CS1-31p (phage-displayed disulfide cyclized 13 mer peptide)] has measured ELISA (absorbance units) (absorbance units) not below 0.2. Thanks!
0.0

Hello, I need to know if CSFRYQWDMFRCS (disulfide 1-12 (inferred); also: displayed on phage (phagemid)) [phagemid CS1-11p (phage-displayed disulfide cyclized 13 mer peptide)] has measured ELISA (absorbance units) (absorbance units) not below 0.2. Thanks!
1.0

Hello, I need to know if CSGLYPWDYFMCS (disulfide 1-12 (inferred); also: displayed on phage (phagemid)) [phagemid CS1-29p (phage-displayed disulfide cyclized 13 mer peptide)] has measured ELISA (absorbance units) (absorbance units) not below 0.2. Thanks!
0.0

Hello, I need to know if CSFRYLWDQDRCS (disulfide 1-12 (inferred); also: displayed on phage (phagemid)) [phagemid CS1-6p (phage-displayed disulfide cyclized 13 mer peptide)] has measured ELISA (absorbance units) (absorbance units) not below 0.2. Thanks!
0.0
